- Tested on: HIV-1
- Experimental protocol: HIV inhibition assay in acutely infected CEM cells (tetrazolium/MTT based)
- Assay type: cell-based
- Condition notes: Human immunodeficiency virus 1, CCRF-CEM, 168 h, HIV-1 1000 TCID50, MTT, 7 days
Documented EC50 across a set of molecules
# value in µM; strip the unit string

{"Chem smiles": "CC(C)CN(C[C@@H](O)[C@H](Cc1ccccc1)NC(=O)[C@H](C)CS(=O)(=O)Cc1cncs1)S(=O)(=O)c1ccc2c(c1)OCO2", "Target or test system": "HIV-1", "Unit string": "µM", "EC50": 0.021}

Record "CC(C)CN(C[C@@H](O)[C@H](Cc1ccccc1)NC(=O)[C@H](C)CS(=O)(=O)Cc1c[nH]cn1)S(=O)(=O)c1ccc2c(c1)OCO2" . Reported EC50: 0.187

Record "CC(C)CN(C[C@@H](O)[C@H](Cc1ccccc1)NC(=O)[C@H](C)CS(=O)(=O)Cc1cc[nH]n1)S(=O)(=O)c1ccc2c(c1)OCO2" . Reported EC50: 0.071

Record "CC(C)CN(C[C@@H](O)[C@H](Cc1ccccc1)NC(=O)[C@H](C)CS(=O)(=O)CC(=O)c1ccccc1)S(=O)(=O)c1ccc2c(c1)OCO2" . Reported EC50: 0.039

Record "CC(C)CN(C[C@@H](O)[C@H](Cc1ccccc1)NC(=O)[C@H](C)CS(=O)(=O)CCC(=O)N1CCOCC1)S(=O)(=O)c1ccc2c(c1)OCO2" . Reported EC50: 0.123

Record "CC(C)CN(C[C@@H](O)[C@H](Cc1ccccc1)NC(=O)[C@H](C)CS(=O)(=O)Cc1cn[nH]c1)S(=O)(=O)c1ccc2c(c1)OCO2" . Reported EC50: 0.081
